- assay procedure: Antiproliferative activity against rat NRK-52E cells assessed as cell growth inhibition incubated for 48 hrs by MTT assay
- Type: toxicity, cell-based
readout type: IC50 at 48 h (nM)

                                smiles_data  measurement_unit  value_observed
0  O=C(c1ccc2c(c1)OCO2)c1cccc2c3ccccc3n(-c3ncccn3)c12                nM            1250
